System: IL-6
experiment notes: Inhibition of IL-6 secretion in LPS-stimulated PBMCs
Assay type: cell-based
study conditions: Homo sapiens, PBMC; PBMCs stimulated with LPS (50 pg/mL); read-out: EC50 for inhibiting IL-6
reported metric: EC50

Ask | Provide EC50 value for the following molecule: CS(=O)(=O)C=CC#N [3-(methylsulfonyl)acrylonitrile]
Reply | 190 nM
